Data credit: patent US20230141988A1

- protocol description: Plasma and CSF pharmacokinetic study, single sublingual, oral or subcutaneous dose, male Beagle dogs
- Format: in vivo
- conditions: male, beagle, dog, in vivo, po, 10 mg/kg, single PO 10 mg/kg; 0.500 h; individual animal; read-out: CSF concentration
measurement name: concentration at 0.5 h
Param answer (str): number followed by unit.

stdin: Using the record for "CN1CCc2cccc3c2[C@@H]1Cc1ccc(O)c(O)c1-3" , report its concentration at 0.5 h.
stdout: 17.8 ng/mL

----------
- protocol description: in vivo
- conditions: male, C57BL/6J, mouse, brain concentration, Conc. (ng/mL)
measurement name: concentration at 0.5 h (ng/mL)
Could you give me the number in ng/mL? Just the number is fine.

stdin: Reported concentration at 0.5 h, compound "CN1CCc2cccc3c2[C@H]1Cc1ccc(O)c(O)c1-3" : ____
stdout: 7.6

----------
- protocol description: Plasma and CSF pharmacokinetic study, single sublingual, oral or subcutaneous dose, male Beagle dogs
- Type: in vivo
- conditions: male, beagle, dog, in vivo, 5 mg/kg, CSF concentration
measurement name: concentration at 2 h (ng/mL)
Write the answer as a number in ng/mL, unit excluded.

stdin: Give its concentration at 2 h value. Item: "CN1CCc2cccc3c2[C@@H]1Cc1ccc(O)c(O)c1-3"
stdout: 76.2

----------
- protocol description: in vivo
- conditions: male, C57BL/6J, mouse, plasma concentration
Reported values of concentration at 1 h for individual entries

given smiles: CN1CCc2cccc3c2[C@H]1Cc1ccc(O)c(O)c1-3
concentration at 1 h: 1.82 ng/mL

Now, please, on to the next molecule.
stdin: Entry "CN1CCc2cccc3c2[C@@H]1Cc1ccc(O)c(O)c1-3" : reported concentration at 1 h = ?
stdout: 52 ng/mL

----------
- protocol description: Plasma and CSF pharmacokinetic study, single sublingual, oral or subcutaneous dose, male Beagle dogs
- Format: in vivo
- conditions: male, beagle, dog, in vivo, sc, 1 mg/kg, plasma concentration
measurement name: concentration at 4 h (ng/mL)
Please reply with the bare figure in ng/mL and do not write the unit itself.

stdin: What value of measured concentration at 4 h is listed for "CN1CCc2cccc3c2[C@@H]1Cc1ccc(O)c(O)c1-3" ?
stdout: 1.11

----------
- protocol description: in vivo
- conditions: male, cynomolgus monkey, po, 10 mg/kg, Plasma concentration, fed male Cynomolgus Monkeys, 0.5 h, animal 168777C
measurement name: concentration at 0.5 h (ng/mL)
Your answer is read as ng/mL, so omit the unit and give the number.

stdin: Entry "CN1CCc2cccc3c2[C@@H]1Cc1ccc(O)c(O)c1-3" : reported concentration at 0.5 h = ?
stdout: 4.15

----------
- protocol description: in vivo
- conditions: male, C57BL/6J, mouse, po, 25 mg/kg, CSF concentration
measurement name: concentration at 2 h (ng/mL)
Lab book: enter the figure in ng/mL, no units written.

stdin: Looking for the measured concentration at 2 h of "CN1CCc2cccc3c2[C@@H]1Cc1ccc(O)c(O)c1-3" , can you help?
stdout: 3.08

----------
- protocol description: in vivo
- conditions: male, beagle, dog, in vivo, po, 10 mg/kg, ratio of cerebellum/plasma
measurement name: Kp at 0.5 h
Give a plain numeric answer without units written out.

stdin: What does the data say about its Kp at 0.5 h? Entry: "CN1CCc2cccc3c2[C@@H]1Cc1ccc(O)c(O)c1-3"
stdout: 0.505
